I'd appreciate it if you could supply ORYSAT values for the items below.
# Tested on: Oryza sativa, (L.) Tebonnet
# method: Rice tolerance to post-transplant applications under flooded paddy conditions (Example 187), ORYSAT (Rice, Tebonnet)
# conditions used: 0.2500 kg/ha, herbicidal effect rating 0-9, three to four weeks after treatment
Keep it simple and answer with nothing but the number.

Prompt: Name the reported ORYSAT value associated with the compound Cn1c(C(F)(F)F)cc(=O)n(-c2ccc3snc(C(=O)NS(=O)(=O)Cc4ccc(C(C)(C)C)cc4)c3c2)c1=O
Completion: 2.0

Prompt: Name the reported ORYSAT value associated with the compound COCCOC(=O)c1nsc2ccc(-n3c(=O)cc(C(F)(F)F)n(C)c3=O)cc12
Completion: 5.0

Prompt: Name the reported ORYSAT value associated with the compound COc1cc(C)c(I)cc1-c1nsc2ccc(-n3c(=O)cc(C(F)(F)F)n(C)c3=O)cc12
Completion: 3.0

Prompt: Name the reported ORYSAT value associated with the compound COC(=O)COc1cc2c(cc1-c1nsc3ccc(-n4c(=O)cc(C(F)(F)F)n(C)c4=O)cc13)CCC2
Completion: 7.0
